tested on: T-47D breast; assay: NCI-60 one-dose screen, 48 h (100 = growth as untreated, 0 = no growth, -100 = all killed); conditions: 10 µM unless noted
This is part of a sample that, as a whole, favours compounds with a hit. Of some 83,000 tested, about 20% had one in any assay.
Metric Name: growth (%)

{"columns": ["Molecule", "Unit Abbreviation", "Measured Result"],
 "data": [
  ["C=C1C(=O)O[C@H]2[C@H]1CC/C(COC(=O)c1cc(OC)c(OC)c(OC)c1)=C\\CC[C@@]1(C)O[C@@H]21", "%", -38.7],
  ["COc1cccc(/C=N/C(=S)NC2(C)C3CCC(C3)C2(C)C)c1O (stereo not drawn)", "%", 56.5],
  ["CN(C)CCCOc1c(Br)cc(/C=C/C(=O)N(C)CCc2cc(Br)c(OCCCN(C)C)c(Br)c2)cc1Br", "%", 92.8],
  ["FC(F)(F)c1cn(CCN2CCOCC2)c2ncnc(Cl)c12", "%", 95.1],
  ["COc1ccc(-c2nn(-c3ccc(NC(=O)Nc4ccc(Cl)c(C(F)(F)F)c4)cc3)cc2-c2ccncc2)cc1Cl", "%", 24.7],
  ["Cc1ccc2c(c1)Nc1ccc(C)cc1C2(C)C", "%", 80.6],
  ["CC1=C2C(=C[C@@](C)(CO)[C@@H]2OC(=O)N(C)CCN(C)C(=O)OC(C)(C)C)C(=O)[C@](C)(O)C12CC2", "%", 45.2],
  ["COc1cc([C@@H]2c3cc4c(cc3C(OC3O[C@@H]5COC(C)O[C@H]5[C@H](O)[C@H]3O)C3COC(=O)[C@@H]32)OCO4)cc(OC)c1O (stereo partly drawn)", "%", 23.9]
]}

###

tested on: HCT-15 colon; assay: NCI-60 one-dose screen, 48 h (100 = growth as untreated, 0 = no growth, -100 = all killed); conditions: 10 µM unless noted
This is part of a sample that, as a whole, favours compounds with a hit. Of some 83,000 tested, about 20% had one in any assay. Calls of active or inactive are those of the source. Rule for the calls: active = growth percent below 10; inactive = the rest.

{"columns": ["Compound", "System Tested", "growth"],
 "data": [
  ["O=C1COc2ccccc2C(=O)N1CCCCN1CCCCC1", "HCT-15 colon", "91.3% (inactive)"],
  ["O=C(Nc1ccc(-n2ccc3c(NC(=O)c4ccccc4)ncnc32)cc1)c1cccc(C(F)(F)F)c1", "HCT-15 colon", "19.7% (inactive)"],
  ["CC(=O)N1N=C2N(Cc3ccccc3)C(=O)c3c(sc4c3CCCC4)N2C1c1cn(-c2ccccc2)nc1-c1ccc(Cl)cc1 (stereo not given)", "HCT-15 colon", "96.9% (inactive)"],
  ["O=C(Nc1ccc(-n2cc(-c3ccncc3)c(-c3ccc(O)c(Cl)c3)n2)cc1)c1ccc(Cl)c(C(F)(F)F)c1", "HCT-15 colon", "7.89% (active)"],
  ["Oc1ccccc1/C=N/c1ccccn1", "HCT-15 colon", "104% (inactive)"],
  ["O=C(Nc1ccc(-n2ccc3c(NC(=O)c4ccccc4)nccc32)cc1)Nc1ccc(Cl)c(Cl)c1", "HCT-15 colon", "-50.8% (active)"],
  ["Cc1ccc2c(C3C(C#N)=C(N)Oc4cc5ccccc5cc43)cc(=O)oc2c1 (stereo not given)", "HCT-15 colon", "31% (inactive)"],
  ["C=CCn1c(SCC(=O)Nc2ccc(/C(C)=N\\O)cc2)nnc1-c1cc(-c2ccc(OC)cc2)nc2ccccc12", "HCT-15 colon", "36.3% (inactive)"],
  ["O=C(NCCNc1nccc(-c2c(-c3cccc(O)c3)nc3sccn23)n1)c1ccc(N2CCOCC2)c(C(F)(F)F)c1", "HCT-15 colon", "80.1% (inactive)"],
  ["Cc1nc(N)nc(SCc2ccccc2)c1Br", "HCT-15 colon", "102% (inactive)"]
]}

###

tested on: HCC-2998 colon; experiment: NCI-60 one-dose screen, 48 h; conditions: 10 µM unless noted
Compounds without any hit were thinned out: in the full panel of roughly 83,000, 20% have a hit. Calls of active or inactive are those of the source. How the source made its calls: active means growth percent below 10; inactive means the rest.
Possible outcomes: active, inactive

{"columns": ["Molecule", "System Tested", "Category Label"],
 "data": [
  ["C=C1C(=O)O[C@H]2[C@H]1CC/C(COC(=O)c1cc(OC)c(OC)c(OC)c1)=C\\CC[C@@]1(C)O[C@@H]21", "HCC-2998 colon", "inactive"],
  ["O=C(NNC(=O)c1ccc([N+](=O)[O-])cc1)c1ccc([N+](=O)[O-])cc1", "HCC-2998 colon", "inactive"],
  ["O=c1c2ccccc2sc2c(N3CCCC3)nc3ccccc3c12", "HCC-2998 colon", "inactive"],
  ["COc1ccc(/C=C2\\CS(=O)(=O)C/C(=C\\c3ccc(OC)cc3)C2=O)cc1", "HCC-2998 colon", "active"],
  ["COc1cc(NS(=O)(=O)c2ccc(N)cc2)ncn1", "HCC-2998 colon", "inactive"],
  ["Cc1cc2nc(-c3c(N)ncc(C#N)c3-c3ccc(Cl)cc3)[nH]c2cc1C", "HCC-2998 colon", "inactive"],
  ["CCN1CCN(Cc2ccc(NC(=O)Nc3cccc(-n4ccc5c(NC(=O)c6ccccc6)nccc54)c3)cc2C(F)(F)F)CC1", "HCC-2998 colon", "inactive"],
  ["CC1CCc2cc(F)cc3c(=O)c(C(=O)O)cn1c23 (stereo not given)", "HCC-2998 colon", "inactive"],
  ["Cc1c(Cl)ccc2c(C(=O)Cl)cc(-c3ccccc3)nc12", "HCC-2998 colon", "inactive"],
  ["CCCOC(=O)c1ccc([N+](=O)[O-])o1", "HCC-2998 colon", "inactive"],
  ["COc1ccc(Cl)cc1NC(=O)c1cc2c(n1C)-c1nc(NC(=O)C(C)C)sc1CC2", "HCC-2998 colon", "inactive"],
  ["O=C(/C=C/c1ccco1)c1cccc(Nc2nc(Nc3ccccc3)nc(Nc3ccccc3)n2)c1", "HCC-2998 colon", "inactive"],
  ["O=C1c2ccccc2OC=C(c2ccccc2)N1CCCCNc1ccc(F)cc1", "HCC-2998 colon", "inactive"],
  ["CCCCOc1c(N)cc(Cl)cc1C(=O)OCCN(CC)CC", "HCC-2998 colon", "inactive"],
  ["Nc1ncnc2c1c(-c1ccc(Oc3ccccc3)cc1)nn2C[C@@H]1SSC[C@H]1O", "HCC-2998 colon", "inactive"],
  ["Cc1c(F)cccc1NC(=O)c1sc2nc3c(cc2c1N)CCCCC3", "HCC-2998 colon", "inactive"],
  ["COc1ccc(-c2nn(-c3ccc(NC(=O)c4cc(Cl)cc(Cl)c4)cc3)cc2-c2ccncc2)cc1Cl", "HCC-2998 colon", "inactive"],
  ["COc1ccc(Cl)cc1NC(=O)c1cc2c([nH]1)-c1nc(NC(=O)C(C)C)sc1CC2", "HCC-2998 colon", "inactive"],
  ["C[C@@H]1CC2C3C[C@H](F)C4=CC(=O)C=C[C@]4(C)[C@@]3(F)[C@@H](O)C[C@]2(C)[C@@]1(O)C(=O)CO (stereo not given in full)", "HCC-2998 colon", "inactive"],
  ["Nc1nc(Nc2ccc(OCc3cccc(F)c3)cc2)c2c(n1)[nH]c1ccc(O)cc12", "HCC-2998 colon", "active"]
]}

###

test system: HOP-92 NSCLC; assay: NCI-60 one-dose screen, 48 h; conditions: 10 µM unless noted
The panel holds about 83,000 compounds, 20% with a hit somewhere; the sample as a whole holds those more often. The source made the active and inactive calls. Rule for the calls: active = growth percent below 10; inactive = the rest.
Outcome codes: yes (1) = active, no (0) = inactive

{"columns": ["Compound", "Category Label"],
 "data": [
  ["O=C(Cn1c2ccccc2c2ccncc21)N/N=C\\c1ccc2ccccc2c1", "yes (1)"],
  ["S=c1[nH]nc(Cn2c3ccccc3c3ccncc32)o1", "no (0)"],
  ["O=C(C[n+]1ccccc1Cl)c1ccc2c(c1)CCCC2", "no (0)"],
  ["O=C(NCCNc1nccc(-c2c(-c3cccc(O)c3)nc3sccn23)n1)c1ccccc1", "no (0)"],
  ["CCNc1ncnc2n[nH]nc12", "no (0)"],
  ["Nc1nc(-c2cc3c(cc2Cl)NC(=O)/C3=C/c2ccccc2)cs1", "no (0)"],
  ["CN1CCN(CC(=O)N(C)c2ccc(N=C(c3ccccc3)c3c(O)[nH]c4ccc(C#N)cc34)cc2)CC1", "no (0)"],
  ["CCN(CC)CCNc1ccc([N+](=O)[O-])c2sc3cc(Cl)ccc3c(=O)c12", "no (0)"],
  ["C=C(C)[C@@H]1C/C=C(\\COC(=O)[C@H](OC(C)=O)C(NC(=O)c2ccccc2)c2ccccc2)CC[C@H]2O[C@]2(C)CC/C=C(\\C)CC1 (some centres undefined)", "no (0)"],
  ["COc1ccc(-n2c(-c3ccc(NC(=O)CCCl)cc3)nnc2-c2cc(OC)c(OC)c(OC)c2)cc1", "no (0)"],
  ["O=C(Nc1ccc(-n2cc(-c3ccncc3)c(-c3ccc(O)c(Cl)c3)n2)cc1)c1ccc(Cl)c(Cl)c1", "no (0)"],
  ["C#CC(=O)/C=C/CCCCCCC#CC(=O)CCC(=O)C#CCCCCCC/C=C/C(=O)C#C", "yes (1)"],
  ["C[C@@H]1CC2C3C[C@H](F)C4=CC(=O)C=C[C@]4(C)[C@@]3(F)[C@@H](O)C[C@]2(C)[C@@]1(O)C(=O)CO (some centres undefined)", "no (0)"],
  ["COC(=O)c1oc2c(C(=O)/C=C/c3ccc(OC)cc3)c(OCCN3CCOCC3)ccc2c1C", "yes (1)"],
  ["CC(=O)c1cc2c(N)c(C(=O)Nc3cccc(Cl)c3)sc2nc1C", "no (0)"],
  ["O=C(NCCNc1nccc(-c2c(-c3cccc(O)c3)nc3sccn23)n1)Nc1cccc(C(F)(F)F)c1", "no (0)"],
  ["COc1cc(-c2nc3ccccc3s2)ccc1OCc1nc2n(n1)S(=O)(=O)c1ccccc1N2c1ccccc1", "no (0)"],
  ["COc1cc2nc(C(=O)N3CCCCC3)cc(Nc3ccccc3)c2cc1OC", "no (0)"],
  ["OC[C@@H](O)C(O[C@@H]1O[C@H](CO)[C@H](O)[C@H](O)[C@H]1O)[C@H](O)[C@@H](O)CO (some centres undefined)", "no (0)"]
]}

Every entry's value here was drawn from PubChem BioAssay (NCI).
